Test system: NCI/ADR-RES ovarian
assay: NCI tumour cell line growth inhibition, 48 h
metricName: GI50

compound=Cn1c(Nc2ccc(C(F)(F)F)cc2)nc2cc(Oc3ccnc(-c4ncc(C(F)(F)F)[nH]4)c3)ccc21 experimentaltarget="NCI/ADR-RES ovarian" metricname=GI50 observedmeasurement="1640 nM"
compound=CS(=O)(=O)Nc1cc(-c2ccc3ncnc(Nc4c(Cl)ccc5c4OCO5)c3c2)cnc1Cl experimentaltarget="NCI/ADR-RES ovarian" metricname=GI50 observedmeasurement="477 nM"
compound=CCOC(=O)c1c(-c2ccc(OC)cc2)c(C#N)c2c(C#N)c(N)nn2c1N experimentaltarget="NCI/ADR-RES ovarian" metricname=GI50 observedmeasurement="3570 nM"
compound="COc1ccc(C2=C(c3ccc(OC)cc3)C(=O)N3CCCC3C2)cc1 (centres undefined)" experimentaltarget="NCI/ADR-RES ovarian" metricname=GI50 observedmeasurement="10300 nM"

----------
Listing of entries alongside the reported TGI.
Test system: HS 578T breast
assay: NCI tumour cell line growth inhibition, 48 h
metricName: TGI

compound=COC(=O)NC(C(F)(F)F)(C(F)(F)F)P1(=O)OCCCO1 experimentaltarget="HS 578T breast" metricname=TGI observedmeasurement="> 100 µM"
compound=COc1ccc(Cn2c(N)c(S(=O)(=O)c3ccc(Cl)cc3)c3nc(C#N)c(C#N)nc32)cc1 experimentaltarget="HS 578T breast" metricname=TGI observedmeasurement="> 50 µM"
compound=O=C(O)c1ccc(C(=O)O)c2c(C(=O)O)ccc(C(=O)O)c12 experimentaltarget="HS 578T breast" metricname=TGI observedmeasurement="> 100 µM"
compound=COC(=O)c1nsc(OC)c1Cl experimentaltarget="HS 578T breast" metricname=TGI observedmeasurement="> 100 µM"
compound="CCCC(=O)N1CCN(c2ccc3c(c2)OC(C)O3)CC1 (stereo not given)" experimentaltarget="HS 578T breast" metricname=TGI observedmeasurement="> 100 µM"
compound=CSc1ccsc1-c1sc(-c2cc(SC)c(-c3sc(-c4cc(SC)c(-c5sccc5SC)s4)cc3SC)s2)cc1SC experimentaltarget="HS 578T breast" metricname=TGI observedmeasurement="> 100 µM"
compound="CC(=O)OCC1OC(n2c(C)cc(C)c(C#N)c2=S)C(OC(C)=O)C(OC(C)=O)C1OC(C)=O (stereo not given)" experimentaltarget="HS 578T breast" metricname=TGI observedmeasurement="> 100 µM"
compound=COC(C)(C)OCCN1CCN(CCN2C3=C(C=C(C(C)=O)C3)Sc3ccccc32)CC1 experimentaltarget="HS 578T breast" metricname=TGI observedmeasurement="36.5 µM"
compound=CCOC(=O)c1c(-c2ccc(OC)cc2)c(C#N)c2c(C#N)c(N)nn2c1N experimentaltarget="HS 578T breast" metricname=TGI observedmeasurement="27.6 µM"
compound=O=C1CCC/C=C\C[C@H]2C=CC(=O)/C2=C/C[C@H](C/C=C\CC(F)(F)F)O1 experimentaltarget="HS 578T breast" metricname=TGI observedmeasurement="9.68 µM"

----------
Tested on: CCRF-CEM leukemia
assay: NCI tumour cell line growth inhibition, 48 h
Listing of entries alongside the reported TGI.
metricName: TGI (µM)

compound=COc1ccc(/C=C(\C(C)=O)C(=O)Nc2ccccc2)cc1 boundsign=> observedmeasurement=100
compound=O=c1nc(N2CCNCC2)oc2cc(Cl)oc(=O)c12 boundsign== observedmeasurement=47.8
compound=C[C@H](Nc1cc(Cl)nc2c1cnn2[C@@H]1O[C@H](COP(=O)(O)CP(=O)(O)O)[C@@H](O)[C@H]1O)c1ccccc1F boundsign=> observedmeasurement=100
compound=Nc1c(C(=O)c2ccccc2)cnn1-c1ccc(F)cc1 boundsign=> observedmeasurement=25
compound="CC(=O)OCC1OC(OC2CC3C(C)(C)C(O)CC[C@]3(C)C3CCC45CC4(CCC5[C@@H](C)CC(O)C(O)C(C)(C)O)[C@]23C)C(O)C(O)C1O (some centres undefined)" boundsign=> observedmeasurement=10
compound=Cn1c(Nc2ccc(C(F)(F)F)cc2)nc2cc(Oc3ccnc(-c4ncc(C(F)(F)F)[nH]4)c3)ccc21 boundsign== observedmeasurement=5.17
compound=O=C1CCC(=O)c2c1c(O)c1ccncc1c2O boundsign== observedmeasurement=39.4
compound=N#Cc1c(-c2ccc(Cl)cc2)c(C#N)c(=O)n(NS(=O)(=O)c2ccccc2)c1O boundsign== observedmeasurement=88.6
compound=COC(=O)C(C(=O)Cc1ccccc1[N+](=O)[O-])C(=O)OC boundsign=> observedmeasurement=100
